molecular target: UniProt P16116
Experimental Endpoint: IC50

Examples with answers:
[[record]]
molecule = "Cn1c(COc2ccc(CC3SC(=O)NC3=O)cc2)nc2ccc(Cl)nc21 (stereo not shown)"
test_system = "UniProt P16116"
recorded_result = "4.47 µM"

[[record]]
molecule = "O=C1NC(=O)C(Cc2ccc(OCCc3c[nH]c4ccccc34)cc2)S1 (stereo not shown)"
test_system = "UniProt P16116"
recorded_result = "6.28 µM"

[[record]]
molecule = "Cn1c(COc2ccc(CC3SC(=O)NC3=O)cc2)nc2ncccc21 (stereo not shown)"
test_system = "UniProt P16116"
recorded_result = "7.06 µM"

[[record]]
molecule = "O=C1NC(=O)C(Cc2ccc(OCCN3CCc4ccccc43)cc2)S1 (stereo not shown)"
test_system = "UniProt P16116"
recorded_result = "10 µM"

[[record]]
molecule = "Cn1c(COc2ccc(CC3SC(=O)NC3=O)cc2)nc2cc(Br)cnc21 (stereo not shown)"
test_system = "UniProt P16116"
recorded_result = "4.02 µM"

[[record]]
molecule = "O=C1NC(=O)C(Cc2ccc(OCc3nc4cccnc4n3Cc3ccc(Cl)cc3)cc2)S1 (stereo not shown)"
test_system = "UniProt P16116"
recorded_result = "3.76 µM"


Recorded IC50 (molecule Cn1c(COc2ccc(CC3SC(=O)NC3=O)cc2)nc2cnccc21 (stereo not shown) ): 2.42 µM

Recorded IC50 (molecule CN1c2ccccc2CC1COc1ccc(CC2SC(=O)NC2=O)cc1 (stereo not shown) ): 8.68 µM

Recorded IC50 (molecule Cn1c(COc2ccc(CC3SC(=O)NC3=O)cc2)nc2cccnc21 (stereo not shown) ): 2.71 µM

Recorded IC50 (molecule O=C1NC(=O)C(Cc2ccc(OCc3nc4cccnc4n3-c3ccccc3)cc2)S1 (stereo not shown) ): 1.97 µM

* * *

Known inhibition at 5 µg/mL of a selection of compounds
biological target: Bovine lens aldose reductase (Bos taurus); construct: Bovine lens aldose reductase was separated and partially purified; from tissue; host or cells: bovine lens; assay: Inhibition of Aldose reductase; assay type: biochemical; conditions: read-out: Inhibition at 5 μg/ml
A number alone suffices; assume %.

[[record]]
compound = "Cn1c(COc2ccc(CC3SC(=O)NC3=O)cc2)nc2cnccc21 (stereo not drawn)"
recorded_result = 81.6


Recorded inhibition at 5 µg/mL (compound O=C1NC(=O)C(Cc2ccc(OCc3nc4cccnc4n3-c3ccccc3)cc2)S1 (stereo not drawn) ): 91.8

Recorded inhibition at 5 µg/mL (compound CN1c2ccccc2CC1COc1ccc(CC2SC(=O)NC2=O)cc1 (stereo not drawn) ): 58.1

* * *

target: Bovine lens aldose reductase (Bos taurus); construct: Bovine lens aldose reductase was separated and partially purified; from tissue; host or cells: bovine lens; experiment: Inhibition of Aldose reductase; format: biochemical; details: read-out: Inhibition at 5 μg/ml
Entry flag: true (1) if inhibition at 5 µg/mL reaches 60%; false (0) if it does not.

Worked examples, 3 compounds total:
[[record]]
compound = "O=C1NC(=O)C(Cc2ccc(OCc3cn4ccccc4n3)cc2)S1 (stereo not drawn)"
test_system = "Bovine lens aldose reductase (Bos taurus)"
class = "false (0)"

[[record]]
compound = "Cn1c(COc2ccc(CC3SC(=O)NC3=O)cc2)nc2cc(Br)cnc21 (stereo not drawn)"
test_system = "Bovine lens aldose reductase (Bos taurus)"
class = "true (1)"

[[record]]
compound = "O=C1NC(=O)C(Cc2ccc(OCCn3ccc4ccccc43)cc2)S1 (stereo not drawn)"
test_system = "Bovine lens aldose reductase (Bos taurus)"
class = "false (0)"


Now consider the entry below.
Check the entry Cn1c(COc2ccc(CC3SC(=O)NC3=O)cc2)nc2cc(C(F)(F)F)cnc21 (stereo not drawn) : does inhibition at 5 µg/mL equal or exceed 60%?
true (1)
